# Protocol Text: Acute oral toxicity in mice
# Test Conditions: mouse, in vivo, male mice, mortality over 15 days
Reported Property: LD50 at 360 h

{"columns": ["Compound", "Result"],
 "data": [
  ["CCCCCCCCN(C)CCCC(C#N)(c1ccc(OC)c(OC)c1)C(C)C (centres unmarked)", "> 300 mg/kg"],
  ["COc1ccc(C(C#N)(CCCN(C)CCCCc2ccccc2)C(C)C)cc1OC (centres unmarked)", "350 mg/kg"],
  ["COc1ccc(C(C#N)(CCCN(C)CCCc2ccccc2)C(C)C)cc1OC (centres unmarked)", "540 mg/kg"],
  ["COc1ccc(C(C#N)(CCCN(C)CCCCCc2ccccc2)C(C)C)cc1OC (centres unmarked)", "470 mg/kg"],
  ["COc1ccc(C(C#N)(CCCN(C)CC=Cc2ccccc2)C(C)C)cc1OC (centres unmarked)", "> 1000 mg/kg"]
]}

* * *

# Assay Target: α1 -adrenergic receptor
# Protocol Text: α1-adrenergic receptor binding, 3H-WB4101, rat forebrain
# Test Conditions: rat forebrain, 3H-WB-4101 1.6 nM, pH 7.4, 25 °C, 15 min; values marked (2) are estimated

{"columns": ["Compound", "α1 pKi"],
 "data": [
  ["COc1ccc(C(C#N)(CCCN(C)CCCCCc2ccccc2)C(C)C)cc1OC (centres unmarked)", "≤ 6"],
  ["COc1ccc(C(C#N)(CCCN(C)CCCCc2ccccc2)C(C)C)cc1OC (centres unmarked)", 7],
  ["COc1ccc(C(C#N)(CCCN(C)CCCc2ccccc2)C(C)C)cc1OC (centres unmarked)", "≤ 6"],
  ["CCCCCCCCNCCCC(C#N)(c1ccc(OC)c(OC)c1)C(C)C (centres unmarked)", 6.7],
  ["CCCCCCCCCCN(C)CCCC(C#N)(c1ccc(OC)c(OC)c1)C(C)C (centres unmarked)", "< 6"],
  ["CCCCCCCCN(CCCC(C#N)(c1ccc(OC)c(OC)c1)C(C)C)Cc1ccccc1 (centres unmarked)", "≤ 6"],
  ["COc1ccc(C(C#N)(CCCN(C)CC=Cc2ccccc2)C(C)C)cc1OC (centres unmarked)", 6.8],
  ["CCCCCCCCN(C)CCCC(C#N)(c1ccc(OC)c(OC)c1)C(C)C (centres unmarked)", "≤ 6"]
]}

* * *

Some compounds, each annotated with its measured Ki.
# Assay Target: slow Ca^2+ channel binding sites (Cavia porcellus)
# Construct: forebrain; from tissue; host or cells: guinea-pig forebrain
# Sequence (O35505 whole entry): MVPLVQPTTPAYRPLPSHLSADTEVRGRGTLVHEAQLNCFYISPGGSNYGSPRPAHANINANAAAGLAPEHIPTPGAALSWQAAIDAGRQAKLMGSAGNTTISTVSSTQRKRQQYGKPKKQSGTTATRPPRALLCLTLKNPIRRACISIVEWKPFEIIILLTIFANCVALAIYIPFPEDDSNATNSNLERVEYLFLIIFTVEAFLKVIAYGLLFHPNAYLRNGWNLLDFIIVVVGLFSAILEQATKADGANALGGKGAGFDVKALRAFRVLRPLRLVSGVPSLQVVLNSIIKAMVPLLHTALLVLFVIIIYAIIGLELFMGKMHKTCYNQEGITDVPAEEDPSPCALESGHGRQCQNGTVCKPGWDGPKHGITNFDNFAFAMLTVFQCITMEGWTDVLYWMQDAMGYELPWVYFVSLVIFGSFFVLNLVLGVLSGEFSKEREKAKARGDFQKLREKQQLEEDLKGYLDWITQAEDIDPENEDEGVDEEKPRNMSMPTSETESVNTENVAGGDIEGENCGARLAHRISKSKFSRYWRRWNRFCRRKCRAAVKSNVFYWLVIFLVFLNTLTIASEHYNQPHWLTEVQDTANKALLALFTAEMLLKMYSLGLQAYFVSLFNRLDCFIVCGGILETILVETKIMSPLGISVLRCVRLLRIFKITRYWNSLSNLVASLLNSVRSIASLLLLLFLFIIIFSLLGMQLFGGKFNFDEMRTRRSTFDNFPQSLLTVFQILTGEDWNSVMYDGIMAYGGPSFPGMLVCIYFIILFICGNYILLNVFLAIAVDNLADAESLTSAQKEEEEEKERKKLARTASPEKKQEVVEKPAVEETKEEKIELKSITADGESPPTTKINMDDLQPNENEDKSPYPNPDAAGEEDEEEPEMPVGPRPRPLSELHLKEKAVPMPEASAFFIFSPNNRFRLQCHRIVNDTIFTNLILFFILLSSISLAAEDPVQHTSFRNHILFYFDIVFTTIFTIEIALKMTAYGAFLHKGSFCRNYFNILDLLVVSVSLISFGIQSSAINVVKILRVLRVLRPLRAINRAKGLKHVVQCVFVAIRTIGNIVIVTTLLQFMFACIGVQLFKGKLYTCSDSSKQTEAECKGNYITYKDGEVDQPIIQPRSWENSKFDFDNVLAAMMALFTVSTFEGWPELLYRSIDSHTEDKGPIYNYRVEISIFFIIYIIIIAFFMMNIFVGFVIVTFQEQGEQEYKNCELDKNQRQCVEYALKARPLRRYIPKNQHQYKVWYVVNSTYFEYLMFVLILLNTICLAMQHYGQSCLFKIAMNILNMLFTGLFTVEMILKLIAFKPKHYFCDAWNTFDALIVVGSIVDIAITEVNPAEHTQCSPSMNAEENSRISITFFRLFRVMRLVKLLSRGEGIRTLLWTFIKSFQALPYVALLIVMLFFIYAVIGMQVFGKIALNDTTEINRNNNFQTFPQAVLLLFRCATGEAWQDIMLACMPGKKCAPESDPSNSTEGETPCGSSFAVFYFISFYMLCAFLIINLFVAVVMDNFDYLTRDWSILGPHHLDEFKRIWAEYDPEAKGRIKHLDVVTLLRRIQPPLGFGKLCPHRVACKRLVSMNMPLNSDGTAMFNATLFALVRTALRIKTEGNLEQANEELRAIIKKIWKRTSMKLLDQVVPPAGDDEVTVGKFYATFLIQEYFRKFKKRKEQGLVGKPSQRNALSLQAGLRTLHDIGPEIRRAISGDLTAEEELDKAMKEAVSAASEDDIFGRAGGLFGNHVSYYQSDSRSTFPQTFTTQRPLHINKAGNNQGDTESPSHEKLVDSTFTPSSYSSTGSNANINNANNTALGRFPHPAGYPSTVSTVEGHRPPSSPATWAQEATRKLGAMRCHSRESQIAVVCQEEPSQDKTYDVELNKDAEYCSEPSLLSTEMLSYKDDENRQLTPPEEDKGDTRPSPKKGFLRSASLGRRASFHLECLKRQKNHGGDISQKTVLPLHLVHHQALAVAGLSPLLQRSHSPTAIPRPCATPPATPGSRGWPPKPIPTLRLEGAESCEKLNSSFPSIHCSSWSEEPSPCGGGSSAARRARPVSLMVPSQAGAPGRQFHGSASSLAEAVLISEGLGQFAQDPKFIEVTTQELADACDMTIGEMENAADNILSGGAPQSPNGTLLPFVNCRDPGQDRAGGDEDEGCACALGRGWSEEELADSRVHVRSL
# Protocol Text: Ca2+ receptor binding, 3H-nitrendipine competition
# Parameters: species or system guinea-pig
# Test Conditions: guinea-pig forebrain, 3H-nitrendipine 0.2 nM, pH 7.4, 25 °C, 90 min; read-out: CA2^+ BINDING pKi (converted)
# Procedure: Receptor binding experiments were conducted under the experimental conditions described in Table III. ^3 H-nitrendipine is the radioligand of choice to determine, after competition at different concentrations, the affinity of compounds of the invention, for the slow Ca^2+ channel binding sites. […] KD values (Dissociation Constant) were determined by Scatchard analysis. Ki values (Inhibition Constant) were calculated according to the Cheng and Prusoff equation, using IC50 values: [formula]

{"columns": ["Compound", "Reading Unit", "Ki"],
 "data": [
  ["CCCCCCCCCCN(C)CCCC(C#N)(c1ccc(OC)c(OC)c1)C(C)C (stereo not shown)", "nM", 39.8],
  ["CCCCCCCCN(CCCC(C#N)(c1ccc(OC)c(OC)c1)C(C)C)Cc1ccccc1 (stereo not shown)", "nM", 501],
  ["CCCCCCCCNCCCC(C#N)(c1ccc(OC)c(OC)c1)C(C)C (stereo not shown)", "nM", 126],
  ["COc1ccc(C(C#N)(CCCN(C)CCCCCc2ccccc2)C(C)C)cc1OC (stereo not shown)", "nM", 251]
]}
